target: purified catalytic domain of recombinant human TACE (rhTACEc) (Homo sapiens, UniProt P78536, N452Q/S266A); construct: 6xHis (C); made in house; host or cells: baculovirus/Hi5 insect cells; assay: TACE kinetic assay: cleavage of internally quenched peptide substrate TNF-FRET 2 (Ki); type: biochemical; conditions: TNF-FRET 2 substrate, read-out: Ki
Sequence (P78536 215-477 S266A/N452Q): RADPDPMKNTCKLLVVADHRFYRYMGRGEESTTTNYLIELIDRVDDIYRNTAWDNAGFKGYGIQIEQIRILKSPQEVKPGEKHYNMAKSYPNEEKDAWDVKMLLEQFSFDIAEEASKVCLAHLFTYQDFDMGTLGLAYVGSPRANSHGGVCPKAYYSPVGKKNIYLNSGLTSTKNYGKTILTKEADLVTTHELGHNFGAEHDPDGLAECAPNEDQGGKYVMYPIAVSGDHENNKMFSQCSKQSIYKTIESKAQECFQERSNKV
Observation Type: Ki
Show the value, then the unit it is measured in.

Consider the following illustrative entries.
compound=COc1ccc2c(c1)C(=O)N(C[C@@]1(c3cc4nc(-c5cc[nH]n5)ccc4o3)NC(=O)NC1=O)C2 observation_type=Ki result="342 pM"
compound=COc1ccc2c(c1)C(=O)N(C[C@@]1(c3cc4cc(C(=O)N5CCC(N(C)C)CC5)c(F)cc4o3)NC(=O)NC1=O)C2 observation_type=Ki result="620 pM"
compound=COc1ccc2c(c1)C(=O)N(C[C@@]1(c3cc4cc(C5(C(N)=O)CC5)ccc4o3)NC(=O)NC1=O)C2 observation_type=Ki result="380 pM"

We next turn to a different compound, shown below.
**Query** Returns the measured Ki for the input compound. Input: COc1ccc2c(c1F)C(=O)N(C[C@@]1(c3cc4nc(N5C(=O)CCC5C)ccc4o3)NC(=O)NC1=O)C2 (stereo partly shown)
**Result** 400 pM

----------
Each item that follows carries a reported Ki.
molecular target: purified catalytic domain of recombinant human TACE (rhTACEc) (Homo sapiens, UniProt P78536, N452Q/S266A); construct: 6xHis (C); made in house; host or cells: baculovirus/Hi5 insect cells; assay: TACE kinetic assay: cleavage of internally quenched peptide substrate TNF-FRET 2 (Ki); type: biochemical; settings: TNF-FRET 2 substrate, read-out: Ki
Give the quantity in nM, number only.

Consider the following illustrative entries.
compound=COc1ccc2c(c1)C(=O)N(C[C@@]1(c3cc4nc(-c5cn[nH]c5)ccc4o3)NC(=O)NC1=O)C2 observation_type=Ki uom=nM number=0.197
compound=COc1ccc2c(c1)C(=O)N(C[C@@]1(c3cc4nc(Nc5ccnn5C)ccc4o3)NC(=O)NC1=O)C2 observation_type=Ki uom=nM number=0.418

We next turn to a different compound, shown below.
**Query** Returns the measured Ki for the input compound. Input: COc1ccc2c(c1)C(=O)N(CC1([C@H]3C[C@H](c4ccccc4)C3)NC(=O)NC1=O)C2 (stereo partly drawn)
**Result** 9.99
